# TARGET: Proprotein convertase subtilisin/kexin type 9 (Homo sapiens, UniProt Q8NBP7)
# Sequence (Q8NBP7 31-152 limits assumed): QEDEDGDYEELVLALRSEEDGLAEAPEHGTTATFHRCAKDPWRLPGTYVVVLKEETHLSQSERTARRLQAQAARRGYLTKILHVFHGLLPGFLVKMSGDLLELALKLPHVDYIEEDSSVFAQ
# Sequence (Q8NBP7 153-692 limits assumed): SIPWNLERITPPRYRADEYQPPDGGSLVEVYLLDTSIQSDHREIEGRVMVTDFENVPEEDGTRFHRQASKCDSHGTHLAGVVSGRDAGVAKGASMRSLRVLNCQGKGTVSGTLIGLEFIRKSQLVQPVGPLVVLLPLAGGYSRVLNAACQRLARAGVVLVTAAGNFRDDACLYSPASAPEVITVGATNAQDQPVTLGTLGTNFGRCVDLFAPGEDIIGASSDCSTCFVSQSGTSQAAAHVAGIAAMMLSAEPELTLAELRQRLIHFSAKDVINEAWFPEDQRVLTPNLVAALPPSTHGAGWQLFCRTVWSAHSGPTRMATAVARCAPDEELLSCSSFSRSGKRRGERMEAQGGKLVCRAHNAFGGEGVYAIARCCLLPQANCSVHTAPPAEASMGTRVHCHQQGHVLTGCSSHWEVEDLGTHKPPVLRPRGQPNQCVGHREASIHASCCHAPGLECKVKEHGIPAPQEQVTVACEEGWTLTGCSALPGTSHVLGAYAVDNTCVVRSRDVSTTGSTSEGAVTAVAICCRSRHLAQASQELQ
Numbered stars: 1 amine (or outer) side, 2 acyl side, 3 side chain; on linkers, the order of the positions; unused ones are H or OH. Bridge positions count the residues as written; N and C are the ends. Square brackets hold non-standard residues; d marks the D form. Peptide text beside a SMILES is read from it. Trp(5-F) = N[C@@H](Cc1c[nH]c2ccc(F)cc12)C(=O)O; mXylylene(5-F) = Fc1cc(C[*:1])cc(C[*:2])c1; X1 = O=C(CCSCc1cccc(CSCCN[*:1])c1)[*:2]; mXylylene = c1cc(C[*:1])cc(C[*:2])c1; Asu = N[C@@H](CCCCCC(=O)O)C(=O)O; αMeP = C[C@@]1(C(=O)O)CCCN1; Orn = NCCC[C@H](N)C(=O)O; Mpa = O=C(O)CCS
Please respond with 1 (yes) when measured Ki is strictly beneath 10 nM, and with 0 (no) in all other cases.

- MOLECULE: "COc1ccc(C[C@@H]2NC(=O)[C@H](Cc3cnc[nH]3)NC(=O)[C@H](CC(=O)O)NC(=O)[C@H](Cc3c[nH]c4ccc(F)cc34)NC(=O)[C@H](Cc3c[nH]c4ccc(F)cc34)NC(=O)[C@@H](C)NC(=O)[C@H](CCCCCC(=O)O)NC(=O)CCSCc3cccc(c3)CSCCNC(=O)[C@]3(C)CCCN3C2=O)cc1 (cyclo([Asu][dA][Trp(5-F)][Trp(5-F)]DHY(Me)[αMeP][X1]))"
  CAT: "0 (no)"
- MOLECULE: "COc1ccc(C[C@@H]2NC(=O)[C@H](Cc3cnc[nH]3)NC(=O)[C@H](CC(=O)O)NC(=O)[C@H](Cc3c[nH]c4ccc(F)cc34)NC(=O)[C@H](Cc3c[nH]c4ccc(F)cc34)NC(=O)[C@@H](C)NC(=O)[C@H](CCCCO)NC(=O)CCSCc3cccc(c3)CSCCNC(=O)[C@]3(C)CCCN3C2=O)cc1"
  CAT: "0 (no)"
- MOLECULE: "C[C@H]1NC(=O)[C@H](CCCCN)NC(=O)CCSCc2cc(F)cc(c2)CSC[C@@H](C(N)=O)NC(=O)[C@]2(C)CCCN2C(=O)[C@H](Cc2ccc(O)cc2)NC(=O)[C@H]([C@@H](C)O)NC(=O)[C@@H]2CCCN2C(=O)[C@H](Cc2c[nH]c3ccc(F)cc23)NC(=O)[C@H](Cc2c[nH]c3ccc(F)cc23)NC1=O ([Mpa]K[dA][Trp(5-F)][Trp(5-F)]PTY[αMeP]C-NH2; linker 1-10 via mXylylene(5-F))"
  CAT: "0 (no)"
- MOLECULE: "COc1ccc(C[C@@H]2NC(=O)[C@H]([C@@H](C)O)NC(=O)[C@@H]3CCCCC(=O)NCc4cccc(c4)C[C@H](NC(=O)[C@@H](C)NC(=O)[C@H](C)NC(=O)CCSCc4cccc(c4)CSCCNC(=O)[C@]4(C)CCCN4C2=O)C(=O)N[C@@H](Cc2c[nH]c4ccc(F)cc24)C(=O)N3)cc1"
  CAT: "1 (yes)"
- MOLECULE: "C[C@@]12CCCN1C(=O)[C@H](Cc1ccc(O)cc1)NC(=O)[C@H](Cc1cnc[nH]1)NC(=O)[C@H](CC(=O)O)NC(=O)[C@H](Cc1c[nH]c3ccc(F)cc13)NC(=O)[C@H](Cc1c[nH]c3ccc(F)cc13)NC(=O)CNC(=O)[C@H](CCCN)NC(=O)CCSCc1cccc(c1)CSC[C@@H](C(N)=O)NC2=O ([Mpa][Orn]G[Trp(5-F)][Trp(5-F)]DHY[αMeP]C-NH2; linker 1-10 via mXylylene)"
  CAT: "0 (no)"
